tested on: Salmonella enterica subsp. enterica; experiment: Antimicrobial activity against Salmonella enterica Serovar Typhi isolate C152 harboring DNA gyrase A S83Y mutation by disk diffusion method in presence of plasmid mediated quinolone-resistant gene qnrA and qnrS; assay type: functional, Salmonella enterica subsp. enterica serovar Typhi
Listing of recorded MIC by entry.
RECORDED_ENDPOINT: MIC (µg/mL)

[[record]]
compound = "CCn1cc(C(=O)O)c(=O)c2ccc(C)nc21"
unit_label = "µg/mL"
bound_type = ">"
assay_result = 256

[[record]]
compound = "COc1c(N2CCNC(C)C2)c(F)cc2c(=O)c(C(=O)O)cn(C3CC3)c12 (centres undefined)"
unit_label = "µg/mL"
bound_type = "="
assay_result = 0.19

[[record]]
compound = "CC1COc2c(N3CCN(C)CC3)c(F)cc3c(=O)c(C(=O)O)cn1c23 (centres undefined)"
unit_label = "µg/mL"
bound_type = "="
assay_result = 0.5

[[record]]
compound = "O=C(O)c1cn(C2CC2)c2cc(N3CCNCC3)c(F)cc2c1=O"
unit_label = "µg/mL"
bound_type = "="
assay_result = 0.25


###

test system: Salmonella enterica subsp. enterica; test: Antimicrobial activity against multidrug-resistant Salmonella enterica Serovar Typhi isolate AG176 harboring DNA gyrase A S83F mutation by disk diffusion method; type: functional, Salmonella enterica subsp. enterica serovar Typhi
RECORDED_ENDPOINT: MIC

[[record]]
compound = "CC1COc2c(N3CCN(C)CC3)c(F)cc3c(=O)c(C(=O)O)cn1c23 (centres undefined)"
assay_result = "0.75 µg/mL"

[[record]]
compound = "CCn1cc(C(=O)O)c(=O)c2ccc(C)nc21"
assay_result = "> 256 µg/mL"

[[record]]
compound = "O=C(O)c1cn(C2CC2)c2cc(N3CCNCC3)c(F)cc2c1=O"
assay_result = "0.25 µg/mL"

[[record]]
compound = "COc1c(N2CCNC(C)C2)c(F)cc2c(=O)c(C(=O)O)cn(C3CC3)c12 (centres undefined)"
assay_result = "0.09 µg/mL"


###

Listing of recorded MIC by entry.
system: Salmonella enterica subsp. enterica; assay: Antimicrobial activity against multidrug-resistant Salmonella enterica Serovar Typhi isolate DT40 harboring DNA gyrase A S83F mutation by disk diffusion method; assay type: functional, Salmonella enterica subsp. enterica serovar Typhi
RECORDED_ENDPOINT: MIC (µg/mL)

[[record]]
molecule = "O=C(O)c1cn(C2CC2)c2cc(N3CCNCC3)c(F)cc2c1=O"
recorded_endpoint = "MIC"
unit_label = "µg/mL"
bound_type = "="
assay_result = 0.38

[[record]]
molecule = "CCn1cc(C(=O)O)c(=O)c2ccc(C)nc21"
recorded_endpoint = "MIC"
unit_label = "µg/mL"
bound_type = ">"
assay_result = 256

[[record]]
molecule = "COc1c(N2CCNC(C)C2)c(F)cc2c(=O)c(C(=O)O)cn(C3CC3)c12 (centres undefined)"
recorded_endpoint = "MIC"
unit_label = "µg/mL"
bound_type = "="
assay_result = 0.125

[[record]]
molecule = "CC1COc2c(N3CCN(C)CC3)c(F)cc3c(=O)c(C(=O)O)cn1c23 (centres undefined)"
recorded_endpoint = "MIC"
unit_label = "µg/mL"
bound_type = "="
assay_result = 0.5


###

test system: Salmonella enterica subsp. enterica; experiment: Antimicrobial activity against multidrug-resistant Salmonella enterica Serovar Typhi isolate AG8 harboring DNA gyrase A S83F mutation by disk diffusion method; type: functional, Salmonella enterica subsp. enterica serovar Typhi
RECORDED_ENDPOINT: MIC (µg/mL)

[[record]]
compound = "O=C(O)c1cn(C2CC2)c2cc(N3CCNCC3)c(F)cc2c1=O"
unit_label = "µg/mL"
bound_type = "="
assay_result = 0.5

[[record]]
compound = "CC1COc2c(N3CCN(C)CC3)c(F)cc3c(=O)c(C(=O)O)cn1c23 (centres undefined)"
unit_label = "µg/mL"
bound_type = "="
assay_result = 1.5

[[record]]
compound = "CCn1cc(C(=O)O)c(=O)c2ccc(C)nc21"
unit_label = "µg/mL"
bound_type = ">"
assay_result = 256

[[record]]
compound = "COc1c(N2CCNC(C)C2)c(F)cc2c(=O)c(C(=O)O)cn(C3CC3)c12 (centres undefined)"
unit_label = "µg/mL"
bound_type = "="
assay_result = 0.19


FYI, the data here is from ChEMBL document CHEMBL1152457.
